- MEASURED_TARGET: UniProtKB P30968
- Sequence (P30968 whole entry): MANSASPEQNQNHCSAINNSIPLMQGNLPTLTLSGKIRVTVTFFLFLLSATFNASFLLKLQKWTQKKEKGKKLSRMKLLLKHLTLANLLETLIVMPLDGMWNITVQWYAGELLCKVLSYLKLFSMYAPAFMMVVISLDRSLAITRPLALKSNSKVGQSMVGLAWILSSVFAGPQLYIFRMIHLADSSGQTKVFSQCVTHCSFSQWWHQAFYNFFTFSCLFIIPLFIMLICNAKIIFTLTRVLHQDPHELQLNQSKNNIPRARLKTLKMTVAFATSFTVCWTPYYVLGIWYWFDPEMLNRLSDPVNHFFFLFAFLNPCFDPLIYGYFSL
- EXPERIMENTAL_PROTOCOL: Antagonism on humanized GnRH receptor transfected in RBL-1 cells, fluorescence detection of cytoplasmic calcium flow
- CONDITION_CONTEXT: RBL-1 cells transfected with humanized GnRH receptor, 8 nM LH-RH
ENDPOINT: IC50 (nM)

1. CONC(=O)Nc1ccc(-c2sc3c(c2CN(C)C)c(=O)n(-c2cccc(-n4cccn4)n2)c(=O)n3Cc2c(F)cccc2F)cc1 4.1
2. CONC(=O)Nc1ccc(-c2sc3c(c2CN(C)C)c(=O)n(-c2ccc(-n4cccn4)nc2)c(=O)n3Cc2c(F)cccc2F)cc1 1.82
3. CONC(=O)Nc1ccc(-c2sc3c(c2CN(C)C)c(=O)n(-c2ccc(-n4nccn4)nc2)c(=O)n3Cc2c(F)cccc2F)cc1 2.22
4. CONC(=O)Nc1ccc(-c2sc3c(c2CN(C)C)c(=O)n(-c2ccc(-n4cccn4)nn2)c(=O)n3Cc2c(F)cccc2F)cc1 3.13
5. CONC(=O)Nc1ccc(-c2sc3c(c2CN(C)C)c(=O)n(-c2ccc(-n4nccn4)cn2)c(=O)n3Cc2c(F)cccc2F)cc1 3
